target: GABA A receptor α1β3γ2 (hα1) (Homo sapiens, UniProt P14867+P18507); construct: expressed in transfected cells; host or cells: HEK293, transiently transfected; membranes; assay: [3H]flumazenil competition binding, human GABA A α1β3γ2; conditions: HEK293 cells transiently transfected, 1 nM [3H]flumazenil, mean of two determinations; read-out: Ki[nM] hα1
observation_type: log10(Ki) (log10 of the value in nM)

structure_notation: FC(F)c1ccc2c(c1)-c1ncnn1Cc1c(Cl)ncn1-2
target: GABA A receptor α1β3γ2 (hα1) (Homo sapiens, UniProt P14867+P18507)
experimental_result: 1.31

structure_notation: FCCOc1ccc2c(c1)-c1ncnn1Cc1c(Cl)ncn1-2
target: GABA A receptor α1β3γ2 (hα1) (Homo sapiens, UniProt P14867+P18507)
experimental_result: 1.27

structure_notation: Fc1ccc2c(c1)-c1ncnn1Cc1c(Br)ncn1-2
target: GABA A receptor α1β3γ2 (hα1) (Homo sapiens, UniProt P14867+P18507)
experimental_result: 0.32

structure_notation: COc1ccc2c(c1)-c1ncnn1Cc1c(Cl)ncn1-2
target: GABA A receptor α1β3γ2 (hα1) (Homo sapiens, UniProt P14867+P18507)
experimental_result: 1.09

structure_notation: C=Cc1ccc2c(c1)-c1ncnn1Cc1c(Cl)ncn1-2
target: GABA A receptor α1β3γ2 (hα1) (Homo sapiens, UniProt P14867+P18507)
experimental_result: 1.31

structure_notation: FC(F)COc1ccc2c(c1)-c1ncnn1Cc1c(Cl)ncn1-2
target: GABA A receptor α1β3γ2 (hα1) (Homo sapiens, UniProt P14867+P18507)
experimental_result: 1.34

structure_notation: CNc1ccc2c(c1)-c1ncnn1Cc1c(Cl)ncn1-2
target: GABA A receptor α1β3γ2 (hα1) (Homo sapiens, UniProt P14867+P18507)
experimental_result: 0.77

structure_notation: Fc1ccc2c(c1)-c1ncnn1Cc1c(Cl)ncn1-2
target: GABA A receptor α1β3γ2 (hα1) (Homo sapiens, UniProt P14867+P18507)
experimental_result: -0.15
